- Test system: HS 578T breast
- Assay Protocol: NCI tumour cell line growth inhibition, 48 h
// values below are reported TGI

// solved cases for TGI follow
NC(CCCCCP(=O)(O)O)C(=O)O (stereo not drawn) : > 100 µM
OC(c1cc(C(O)(C(F)(F)F)C(F)(F)F)ncn1)(C(F)(F)F)C(F)(F)F : > 10 µM
CCCc1cc(=O)oc2c(C(=O)CC(C)C)c(O)c(CC=C(C)C)c(O)c12 : > 50 µM
CCOC(=O)c1ccc(N=C2SC(=S)N(c3ccc(F)cc3)C2=Nc2ccc(C(=O)OCC)cc2)cc1 : 91.7 µM
CC(C)OP(=O)(OC(C)C)C(C(F)(F)F)C(F)(F)F : > 100 µM
O=C(CC(=O)c1ccncc1)c1ccccc1 : > 100 µM

### Prompt Query TGI on HS 578T breast for COC(=O)N1CC[C@@H]2CCC=C(c3cccc4c3OCO4)[C@@H]21
### Response > 100 µM

### Prompt Lookup N#CC12COC3(CCCCC3C1(C#N)C#N)OC2=N (stereo not drawn)
### Response 44.7 µM

### Prompt And c1ccc(Cc2cccc3cc(-c4ccc(-c5ccccc5)cc4)[nH]c23)cc1 ?
### Response 84 µM

### Prompt Now this one: COc1ccc2nc(-c3ccc(OC(=O)N(C)C)cc3)cn2c1
### Response > 100 µM

### Prompt Cool, now C=CCN1C(=O)/C(=c2\sc3n(c2=O)C2C(NN=3)N(CC)C(=O)N2CC)c2ccccc21 (stereo not drawn)
### Response 58.5 µM

### Prompt Also O=C(N/N=C(/COc1cccc(Cl)c1)N=Cc1ccncc1)c1ccncc1 , if possible.
### Response > 100 µM

### Prompt Check COc1ccc2c(c1)C(=O)c1c-2n(CCCN=[N+]=[N-])c(=O)c2ccccc12 too.
### Response > 100 µM

### Prompt How about this molecule: O=C1NC(=NCC(CO)c2ccccc2)S/C1=C\c1ccc2ncccc2c1 (stereo not drawn)
### Response > 25 µM

----------
- System: SF-268 CNS
- Assay Protocol: NCI tumour cell line growth inhibition, 48 h
# TGI per record follows

Field: example entries. Status: answers known.
CC(=O)OCC1C(C(C)OC(C)=O)CCC2C1CCC1(C)C(OC(C)=O)CCC21 (centres undefined) : 52.5 µM
COc1cc2c(cc1C)NC(=O)/C2=C/c1c(Cl)[nH]c2cc(C)c(OC)cc12 : 18.7 µM
O=C(Nc1ccc(Cl)cc1)c1cc(S(=O)(=O)Nc2n[nH]c(=O)[nH]2)c(SSc2cc(Cl)c(C(=O)Nc3ccc(Cl)cc3)cc2S(=O)(=O)Nc2n[nH]c(=O)[nH]2)cc1Cl : > 100 µM
Cn1c(-c2ccccc2)cc(-c2ccc3c(c2)OCO3)c1-c1cccs1 : > 100 µM
O=C1Cc2cc(CCn3ccnc3)c(Cl)cc2N1 : > 100 µM

### Prompt Quick one: TGI for O=C1CCCCC/C=C2/CC[C@H](Sc3ccccc3)[C@@H]12 ?
### Response > 100 µM

### Prompt Try this molecule next: CC(/C=C/c1ncccc1OCCCCCC(=O)O)=N\NC1=NCCN1
### Response > 100 µM

### Prompt And the next one, C=CCN1CCC(OC(=O)C(O)(/C=C\CC)C2CCCC2)CC1 (centres undefined) ?
### Response > 100 µM

### Prompt Also check NC(=O)c1ccccc1NC(=O)C(=O)C(C(=O)c1ccc2ccccc2c1)C1OC(=O)c2ccccc21 (centres undefined)
### Response 37.1 µM

----------
- System: TK-10 renal
- Assay Protocol: NCI tumour cell line growth inhibition, 48 h
TGI: recorded values

The following molecules have reported results that may help.
CCCc1cc(=O)oc2c(C(=O)CC(C)C)c(O)c(CC=C(C)C)c(O)c12 : > 50 µM
C=C1CC[C@@H]2C(C)(C)[C@@H](O)CC[C@@]2(C)[C@@H]1COc1ccc2ccc(=O)oc2c1 : 43.4 µM
C/C(=N\NC(=O)CC(=O)Nc1ccc(C)cc1)c1cc2ccccc2oc1=O : > 100 µM
Cc1csc2c(P(=O)(OC(C)C)OC(C)C)c(-c3ccccc3)cn12 : 23.7 µM
CC(=O)OC1C=CC2CCN3C(=O)c4cc5c(cc4[C@H]1C23)OCO5 (some centres undefined) : > 100 µM
CC(=O)CC(=O)CCCC(=O)Nc1ccc(Cl)cc1C : > 100 µM
Fc1ccc(-c2nc(-c3nc4ccc(Cl)cc4[nH]3)cc3c2[nH]c2ccccc23)cc1 : 9.86 µM
CCN1CCC[C@H]1c1cc(O)c2c(c1OC)C[C@H]1C[C@H]3[C@H](N)C(=O)C(C(N)=O)=C(O)[C@@]3(O)C(=O)C1=C2O : 2.42 µM
CN(Cc1cnc2nc(N)nc(N)c2n1)c1ccc(C(=O)NC(CCS(=O)(=O)O)C(=O)O)cc1 (centres undefined) : > 100 µM
Cc1c2c(c(C)c3c[n+](C)ccc13)Oc1ccccc1O2 : > 100 µM

### Prompt Can you look up the measured TGI of CCOc1ccc(Cc2nccc3cc(OCC)c(OCC)cc23)cc1OCC for me?
### Response 32.5 µM

### Prompt Then what about the molecule N/C(=N\O)c1ncc(-c2ccc(C(F)(F)F)cc2)c(NC2CCCCCC2)n1 ?
### Response 9.73 µM

### Prompt Ok, now N#CC12COC3(CCCCC3C1(C#N)C#N)OC2=N (centres undefined)
### Response 31.6 µM

### Prompt Please give the result for COC(=O)CCC(NC(=S)N/N=C(\C)c1ccccn1)C(=O)OC (centres undefined) too.
### Response > 100 µM

### Prompt Try CCOC(=O)/C(C(=S)NC)=C(/N)N1CCCC1 next.
### Response > 100 µM

### Prompt Then Nc1ccc2c(c1)C(=O)c1ccc(F)cc1-2 ?
### Response > 100 µM

### Prompt Try the molecule O=C(ON=c1c2ccccc2ccc2ccccc12)c1cc([N+](=O)[O-])cc([N+](=O)[O-])c1
### Response > 100 µM

### Prompt Another: CC1=C(C)C(=O)OC(C(C)(O)C2(O)CCC3(O)C4CC(Cl)C5(O)C(O)C=CC(=O)C5(C)C4CCC32C)C1 (centres undefined)
### Response > 100 µM

### Prompt Consider next the molecule CCOC(=O)c1ccc(N=C2SC(=S)N(c3ccc(F)cc3)C2=Nc2ccc(C(=O)OCC)cc2)cc1 in the same way.
### Response 36.6 µM

### Prompt Now this one: O=c1oc2ncccc2n1Cc1ccc([N+](=O)[O-])cc1
### Response > 100 µM

### Prompt // same read-out, input: COc1cc(CNC(=O)/C=C/C=C/c2ccc3c(c2)OCO3)ccc1OCc1cn(-c2ccc(Cl)c(Cl)c2)nn1
### Response 7.65 µM

----------
- Tested on: NCI-H460 lung
- Assay Protocol: NCI tumour cell line growth inhibition, 48 h
Test Readout: TGI

Study these solved cases before continuing.
CC(C)=CC/C=C(/C)[C@H]1CC[C@]2(C)[C@@H]1CC[C@@H]1[C@@]3(C)CCC(=O)NC(C)(C)[C@@H]3CC[C@]12C : > 100 µM
C/C(CC(O)(C(F)(F)F)C(F)(F)F)=N\N : > 10 µM
CC(/C=C/c1ncccc1OCCCCCC(=O)O)=N\NC1=NCCN1 : > 100 µM

### Prompt Quick check: TGI of ON=C1CCCCC(=NO)CCCC1 ?
### Response > 100 µM

### Prompt # repeat for Nc1ccc2c(c1)C(=O)c1ccc(F)cc1-2
### Response > 100 µM

### Prompt Also need CC(C)(C)OC(=O)N1C(C2=COc3ccccc3O2)=COc2ccccc21 , thanks.
### Response > 100 µM

### Prompt Then COc1cc(/C=C2\C(=O)N(c3cccc(Cl)c3)C(c3ccccc3)S2(=O)=O)cc(OC)c1OC (stereo not given) ?
### Response > 100 µM

----------
- Tested on: PC-3 prostate
- Assay Protocol: NCI tumour cell line growth inhibition, 48 h
Use MET when the recorded TGI is no lower than 20 µM; use NOT MET when it is lower.

N#CC12COC3(CCCCC3C1(C#N)C#N)OC2=N (configuration not stated) : MET
O=C(CCCn1c2c(sc3ncccc32)c(=O)n2nnc(-c3ccccc3)c12)NCCc1cnc[nH]1 : MET
O=C(ON=c1c2ccccc2ccc2ccccc12)c1cc([N+](=O)[O-])cc([N+](=O)[O-])c1 : MET

### Prompt Could you tell me if the measured TGI of C=CCN1CCC(OC(=O)C(O)(/C=C\CC)C2CCCC2)CC1 (configuration not stated) reaches 20 µM or more?
### Response MET

### Prompt How about this molecule: O=C(N[C@H](c1ccc(Cl)c(Cl)c1)C1CNC1)c1ccc2cnccc2c1
### Response NOT MET

### Prompt Check O=C1C2=C(C(=O)c3c(O)ccc(O)c31)N(c1ccc(N3CCOCC3)nc1)Cc1ccccc1O2 too.
### Response NOT MET

### Prompt And what about the molecule COc1ccc(Nc2c3ccccc3nc3c2c2ccccc2n3C)cc1 ?
### Response MET

### Prompt What about Cc1cccc2c1Oc1cc(Cl)ccc1C2NC(=O)CCN1CCCCC1 (configuration not stated) ?
### Response MET

### Prompt Queued: COc1cc2c(cc1C)NC(=O)/C2=C/c1c(Cl)[nH]c2cc(C)c(OC)cc12
### Response MET

### Prompt Query CC1=C(N2CC2)C(=O)C(CO)=C(N2CC2)C1=O next
### Response NOT MET
